- recorded.conditions: buffer; pH 7.4; 200.0 µM
So I've got a bunch of compounds here, and I need their solubility kinetic values.
Express it in mg/mL; write the number only.

Return value of solubility kinetic for input CCC(CC)C(=O)N1CC(=O)Nc2ccc(C)cc2C1c1ccccc1 (stereo not drawn) , no commentary.
0.0024

Provide solubility kinetic value for the following compound: COc1ccccc1OCC(=O)NC1CCCc2ccccc21 (stereo not drawn)
0.0416

Check the records and state solubility kinetic for "COc1ccc([N+](=O)[O-])cc1NC(=O)c1ccco1"
0.0043

Give reported solubility kinetic value for "Cc1ccc(NC(=O)c2ccc(Oc3ncccn3)cc2)cc1"
0.005

Identify the reported solubility kinetic for the following entry. COC(=O)C1=C(N)OC2=C(C(=O)CCC2)C1c1ccccc1OC (stereo not drawn)
0.0145

Return solubility kinetic (reported value) for this compound: "COc1ccc(C(=O)NCCNC(=O)c2ccc(OC)cc2)cc1"
0.0029

Specify solubility kinetic for "O=C(NC(=S)Nc1ccccc1Br)C1CC1" and stop.
0.0417

Annotate the compound "COc1cccc(CN(C)C(=O)C23CC4CC(CC(C4)C2)C3)c1" with its measured solubility kinetic.
0.0194

Input "CC(=O)Nc1ccc(S(=O)(=O)N2CCSc3ccccc32)cc1" , output reported solubility kinetic.
0.0496

Specify solubility kinetic for "Cc1oc(-c2ccc(Cl)cc2)cc1C(=O)/C(C#N)=C/Nc1ccccc1" and stop.
0.0014

Please give the documented solubility kinetic of "CCOC(=O)COc1nc2c(c(-c3ccco3)c1C#N)CCc1ccccc1-2"
0.0015

State its solubility kinetic for this compound: "CCN(CC)c1ccc2c(C)c(Cl)c(=O)oc2c1"
0.0063

Return solubility kinetic (reported value) for this compound: "CCN(CC)c1ccc(Nc2nc(Cl)ncc2Br)cc1"
0.0128

Name the recorded solubility kinetic of the compound listed here: "O=C1CN(C(=O)/C=C/c2ccc(Cl)cc2Cl)CCN1"
0.0442

Look up solubility kinetic of "COc1cc(C)nc(NC(=S)N(C)C(=O)c2ccccc2)n1" and report it.
0.0005

Give the reported value of solubility kinetic for this record: "CCOC(=O)COc1nc(C)cc(C(F)(F)F)c1C#N"
0.036

Give solubility kinetic for the following compound: "Cn1c(C(=O)N2CCC(C(N)=O)CC2)cc2cc(Cl)ccc21"
0.0012

Indicate the recorded solubility kinetic value for this compound: "Cc1ccccc1N1CCN(Cc2ccc(Br)o2)CC1"
0.0043

Complete the entry with solubility kinetic for "N/C(=N\OC(=O)c1ccccc1Cl)c1cccc([N+](=O)[O-])c1"
0.0017

Respond only with solubility kinetic recorded for "O=C(OCc1ccc([N+](=O)[O-])cc1)c1cc(=O)c2ccccc2o1"
0.0059

Supply solubility kinetic value. Item: "CCOC(=O)c1c2c3c(cccc3n(C)c1=O)C(=O)c1ccccc1-2"
0.0026

Give recorded solubility kinetic. "CC(=O)Nc1ccc(SCC(=O)Nc2sccc2C#N)cc1"
0.0265

Provide measured solubility kinetic value, entry: "O=[N+]([O-])c1ccc(SCCc2cc[nH+]cc2)cc1.[Cl-]"
0.0365

Let me know recorded solubility kinetic for "Cc1cc(C)c(C)c(OCC(=O)O/N=C(\N)c2ccncc2)c1" , thanks.
0.0285

Supply reported solubility kinetic belonging to this compound: "C=CCNc1nc2c(c(=O)[nH]c(=O)n2C)n1CCOc1ccccc1"
0.0033

Return solubility kinetic (reported value) for this compound: "CC(=O)c1ccc(N2CCCCC2)c(F)c1"
0.0121

Give solubility kinetic for Cc1cc(C(=O)NC2CCCC(C)C2C)c2ccccc2n1 (stereo not drawn)
0.0189
